Tested System: c-Src SH2;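 note: peptide library displayed on the E. coli surface as eCPX fusions, selected cells deep-sequenced, score is each peptide's frequency after selection divided by its frequency in the input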
Protocol Text: SH2 binding enrichment of the phosphorylated peptide, bacterial display (enrichment ratio); higher = better substrate or ligand; peptides without Tyr show the background
Cut-off 0.5 on SH2 binding enrichment, inclusive. At or above means label 1; below means label 0.

Incoming: Answer whether SH2 binding enrichment of GNLQEYLTRHV [TGFBR2_Y336] is greater than or equal to 0.5.
Outgoing: label 0

Incoming: Answer whether SH2 binding enrichment of PADCRYFTFPQ [GAMT_Y222_A224T_YF] is greater than or equal to 0.5.
Outgoing: label 1

Incoming: Answer whether SH2 binding enrichment of VLTPKYRGGGG [HBA1_Y141_S139P] is greater than or equal to 0.5.
Outgoing: label 1

Incoming: Answer whether SH2 binding enrichment of KLIETYFSKNF [PLP1_Y50_YF] is greater than or equal to 0.5.
Outgoing: label 1

Incoming: Answer whether SH2 binding enrichment of LLANAYIYVVQ [L1CAM_Y418] is greater than or equal to 0.5.
Outgoing: label 0

Incoming: Answer whether SH2 binding enrichment of DAMQTYNGNDE [TSPAN7_Y131] is greater than or equal to 0.5.
Outgoing: label 1

Incoming: Answer whether SH2 binding enrichment of ESMLRYDVYGG [STOX1_Y607_E608D] is greater than or equal to 0.5.
Outgoing: label 1

Incoming: Answer whether SH2 binding enrichment of SARVRYLMAEK [LDHB_Y173_F171V] is greater than or equal to 0.5.
Outgoing: label 1

Incoming: Answer whether SH2 binding enrichment of NGQALYAACQT [XDH_Y1092_V1091L] is greater than or equal to 0.5.
Outgoing: label 0

Incoming: Answer whether SH2 binding enrichment of YFCRWYRNQKS [EREG_Y144_R147Q] is greater than or equal to 0.5.
Outgoing: label 0

Incoming: Answer whether SH2 binding enrichment of NAPNSYGRRPS [CDKN2A_Y44_I49S] is greater than or equal to 0.5.
Outgoing: label 1

Incoming: Answer whether SH2 binding enrichment of SVTCTYSPALI [TP53_Y126_N131I] is greater than or equal to 0.5.
Outgoing: label 0

Incoming: Answer whether SH2 binding enrichment of NKYTTYLPRLP [C9orf24_Y126] is greater than or equal to 0.5.
Outgoing: label 1

Incoming: Answer whether SH2 binding enrichment of KNNDGYIDYAE [MCFD2_Y135] is greater than or equal to 0.5.
Outgoing: label 1

Incoming: Answer whether SH2 binding enrichment of ALDRPYTSKHS [NANS_Y71_E68D] is greater than or equal to 0.5.
Outgoing: label 0

Incoming: Answer whether SH2 binding enrichment of LNCIYYKDQTG [RS1_Y166_W163C] is greater than or equal to 0.5.
Outgoing: label 1

Incoming: Answer whether SH2 binding enrichment of KFDLMYAKCAF [TUBA1A_Y399_R402C] is greater than or equal to 0.5.
Outgoing: label 1

Incoming: Answer whether SH2 binding enrichment of PFDAEYGGGGG [AKR1B10_Y316_N313D] is greater than or equal to 0.5.
Outgoing: label 0

Incoming: Answer whether SH2 binding enrichment of PTATSYNPNLA [GABRA1_Y375_T376N] is greater than or equal to 0.5.
Outgoing: label 1

Incoming: Answer whether SH2 binding enrichment of YYSSEYHCVGG [CTSC_Y345_Y347C] is greater than or equal to 0.5.
Outgoing: label 1

Incoming: Answer whether SH2 binding enrichment of HRDDGYMPMSP [IRS1_Y612_T608R] is greater than or equal to 0.5.
Outgoing: label 1

Incoming: Answer whether SH2 binding enrichment of MFCASYDTKQE [F10_Y407_G406S] is greater than or equal to 0.5.
Outgoing: label 1

Incoming: Answer whether SH2 binding enrichment of YPPTHYIRRVP [SLC4A11_Y820] is greater than or equal to 0.5.
Outgoing: label 0

Incoming: Answer whether SH2 binding enrichment of KDQGTYEDYVE [MYL6_Y86] is greater than or equal to 0.5.
Outgoing: label 1

Incoming: Answer whether SH2 binding enrichment of ITNHIYTWVDP [DFNB31_Y234_V229I] is greater than or equal to 0.5.
Outgoing: label 1

Incoming: Answer whether SH2 binding enrichment of PSQRRYLFFFS [PTEN_Y174_V175L_YF] is greater than or equal to 0.5.
Outgoing: label 1

Where do the numbers come from? From the supplement of paper PMC10065799.
